Listing: protein stability index of selected sequences
# Test system: Saccharomyces cerevisiae;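 further: PSI is a weighted mean of sequencing reads over stability bins, variants kept only with over 10 reads, mCherry proximal and sfGFP distal, peptide attached via GGGS linker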
# measurement-description: protein stability index of tFT-peptide fusion (C-terminal peptide) (PSI (0-1 scale)); higher = more stable (slower turnover)
# protocol-conditions: genetic background: wild type; temperature: 30 C
API note: the answer field is a bare number with no unit suffix.

Take a look at these entries with their results.
>  <sequence-chain>
PPEPSYPPLPPR

>  <protein stability index>
0.717

$$$$
>  <sequence-chain>
WGCGVRWGVDWA

>  <protein stability index>
0.732

$$$$
>  <sequence-chain>
LGGRGGACRRDR

>  <protein stability index>
0.7

$$$$

Sample RVVFHPFVQSLF ; protein stability index observed: 0.62

Sample FTGLCQGLWLGW ; protein stability index observed: 0.738

Sample PPRPPPPPLRST ; protein stability index observed: 0.758

Sample THHPQRPPRTLP ; protein stability index observed: 0.745

Sample ENANWHSKNMSK ; protein stability index observed: 0.723

Sample WRNTGSTYYMKV ; protein stability index observed: 0.723

Sample PLGQVLRVSSDF ; protein stability index observed: 0.755

Sample KKDFTTKSKEYR ; protein stability index observed: 0.712

Sample PLPRLPSSLSRP ; protein stability index observed: 0.697

Sample KNIKENIGDKNK ; protein stability index observed: 0.646

Sample MSCLSDFPVCFL ; protein stability index observed: 0.726

Sample LFIGKEGWVACL ; protein stability index observed: 0.562

Sample FPRPLPVPLAVS ; protein stability index observed: 0.257

Sample SKLVEIIMKLQG ; protein stability index observed: 0.618

Sample HSSDTAFSPLPP ; protein stability index observed: 0.645

Sample RTAPVPETAQQD ; protein stability index observed: 0.678

Sample SSPAPPPLLLPS ; protein stability index observed: 0.705
